Provide the recorded IC50 for the entries that follow.
- target_of_assay: Fatty acid synthase (Homo sapiens)
- Sequence (P49327 whole entry): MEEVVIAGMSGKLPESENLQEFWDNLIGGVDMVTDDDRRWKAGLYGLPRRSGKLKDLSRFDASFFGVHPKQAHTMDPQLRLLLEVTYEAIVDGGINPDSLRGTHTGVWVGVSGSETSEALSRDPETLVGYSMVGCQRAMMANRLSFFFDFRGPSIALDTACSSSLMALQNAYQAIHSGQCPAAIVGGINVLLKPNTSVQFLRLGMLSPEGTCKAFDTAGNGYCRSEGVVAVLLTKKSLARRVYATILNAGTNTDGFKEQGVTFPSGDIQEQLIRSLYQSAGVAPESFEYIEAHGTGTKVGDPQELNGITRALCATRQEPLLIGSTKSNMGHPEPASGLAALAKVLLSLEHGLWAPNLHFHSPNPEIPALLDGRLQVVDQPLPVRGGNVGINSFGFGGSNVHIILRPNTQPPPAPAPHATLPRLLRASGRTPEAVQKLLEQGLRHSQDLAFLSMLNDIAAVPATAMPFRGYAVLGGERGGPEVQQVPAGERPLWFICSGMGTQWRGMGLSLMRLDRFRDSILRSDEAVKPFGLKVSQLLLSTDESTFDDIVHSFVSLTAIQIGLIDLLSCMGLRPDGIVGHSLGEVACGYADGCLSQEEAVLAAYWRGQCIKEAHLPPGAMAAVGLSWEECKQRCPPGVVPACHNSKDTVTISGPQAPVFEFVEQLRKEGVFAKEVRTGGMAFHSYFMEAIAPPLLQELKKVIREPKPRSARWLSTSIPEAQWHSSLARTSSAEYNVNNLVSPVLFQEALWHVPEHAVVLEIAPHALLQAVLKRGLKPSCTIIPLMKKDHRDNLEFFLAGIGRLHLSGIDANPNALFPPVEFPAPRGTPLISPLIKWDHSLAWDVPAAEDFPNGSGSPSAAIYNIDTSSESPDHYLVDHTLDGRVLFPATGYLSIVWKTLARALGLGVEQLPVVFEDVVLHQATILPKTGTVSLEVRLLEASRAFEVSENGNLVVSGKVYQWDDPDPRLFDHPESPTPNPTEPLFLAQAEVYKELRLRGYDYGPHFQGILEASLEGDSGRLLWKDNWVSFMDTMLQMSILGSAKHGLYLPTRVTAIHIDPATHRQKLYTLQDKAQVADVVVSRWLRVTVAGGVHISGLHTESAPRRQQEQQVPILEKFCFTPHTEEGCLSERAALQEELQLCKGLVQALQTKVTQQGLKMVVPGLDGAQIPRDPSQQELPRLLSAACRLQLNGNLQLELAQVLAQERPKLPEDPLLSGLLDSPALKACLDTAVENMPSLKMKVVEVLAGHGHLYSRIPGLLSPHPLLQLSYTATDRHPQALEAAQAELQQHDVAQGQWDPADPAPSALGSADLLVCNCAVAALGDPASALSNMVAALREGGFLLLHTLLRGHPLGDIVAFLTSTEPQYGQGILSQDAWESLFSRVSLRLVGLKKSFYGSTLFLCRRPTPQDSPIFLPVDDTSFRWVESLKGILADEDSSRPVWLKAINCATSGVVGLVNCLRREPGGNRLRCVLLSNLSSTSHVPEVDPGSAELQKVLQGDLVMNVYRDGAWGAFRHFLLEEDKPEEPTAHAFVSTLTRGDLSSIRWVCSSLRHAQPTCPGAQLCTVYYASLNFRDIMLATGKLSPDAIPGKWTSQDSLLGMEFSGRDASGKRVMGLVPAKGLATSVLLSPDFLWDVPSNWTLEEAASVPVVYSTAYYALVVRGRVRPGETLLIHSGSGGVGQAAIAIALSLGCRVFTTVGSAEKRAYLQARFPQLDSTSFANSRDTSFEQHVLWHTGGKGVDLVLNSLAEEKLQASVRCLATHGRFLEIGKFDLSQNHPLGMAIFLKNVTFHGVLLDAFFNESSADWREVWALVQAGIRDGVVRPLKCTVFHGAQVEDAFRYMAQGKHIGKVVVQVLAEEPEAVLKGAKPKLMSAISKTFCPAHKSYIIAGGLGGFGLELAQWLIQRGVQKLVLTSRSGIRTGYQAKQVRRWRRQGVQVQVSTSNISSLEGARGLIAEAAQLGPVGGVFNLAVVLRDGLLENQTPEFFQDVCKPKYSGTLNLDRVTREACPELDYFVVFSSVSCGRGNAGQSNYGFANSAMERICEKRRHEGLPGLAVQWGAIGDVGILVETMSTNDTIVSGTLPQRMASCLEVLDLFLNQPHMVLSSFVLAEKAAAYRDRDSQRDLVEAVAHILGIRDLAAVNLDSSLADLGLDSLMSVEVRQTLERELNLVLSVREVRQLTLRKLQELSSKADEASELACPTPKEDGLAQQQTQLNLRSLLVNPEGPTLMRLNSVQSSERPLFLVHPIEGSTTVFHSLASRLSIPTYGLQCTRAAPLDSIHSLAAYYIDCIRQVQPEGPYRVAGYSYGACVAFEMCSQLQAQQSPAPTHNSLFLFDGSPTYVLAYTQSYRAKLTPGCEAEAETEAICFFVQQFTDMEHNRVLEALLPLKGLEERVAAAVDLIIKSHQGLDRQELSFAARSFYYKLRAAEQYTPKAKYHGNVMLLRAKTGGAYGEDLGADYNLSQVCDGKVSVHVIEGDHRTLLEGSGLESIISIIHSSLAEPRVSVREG
- method_summary: inhibition of human FAS-TE enzyme activity – biochemical, endpoint fluorescence intensity, uHTS hits, dose response (AID 624327);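 note: fluorescence from hydrolysis of an O-methyl fluorescein acyl ester substrate by the enzyme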
- Format: functional
Active and inactive are the calls of the source. Cut-off read from the data, not from the text of the source: active = IC50 of 20 µM or less and inactive = more.

Observe how each entry below is paired with its result.
molecule: CCN(CC)C(=O)C1CCCN(c2ccc([N+](=O)[O-])cc2/C=N/NC(=O)c2cccc(O)c2)C1 (stereo not given)
IC50: 1.93 µM (active)
//
molecule: CCc1ccc(S(=O)(=O)c2nnn3c2nc(NCCNC(C)=O)c2ccccc23)cc1
IC50: 3.84 µM (active)
//
molecule: COc1cc(OC)c(C2=NOC(C(=O)N3CCc4ccccc4C3)C2)cc1Cl (stereo not given)
IC50: 3.02 µM (active)
//
molecule: CC(=O)N1CCN(S(=O)(=O)c2cccc(C(=O)OCc3ccc(C(C)(C)C)cc3)c2)CC1
IC50: 0.376 µM (active)

# evaluate next
Ask | Give IC50 (Fatty acid synthase (Homo sapiens)) of the following molecule: O=c1c2ccccc2nc(SCc2ccc([N+](=O)[O-])cc2)n1CCCO
Reply | 10.2 µM (active)
